The reported measurements were obtained from the supplement of paper PMC10307832.

Tested on: NCI-H2170
test_summary: relative viability (nuclei count vs DMSO), 5 days (fraction); higher = more cells survive
setup_conditions: first compound 0.6325 µM
measured_quantity: relative viability
Field format: numeric only.

molecule	target_of_assay	recorded_number
CN1CCN(CCOc2cc(OC3CCOCC3)c3c(Nc4c(Cl)ccc5c4OCO5)ncnc3c2)CC1 [Saracatinib] + C[C@@H](Oc1cc(-c2cnn(C3CCNCC3)c2)cnc1N)c1c(Cl)ccc(F)c1Cl [Crizotinib] (partner 1 µM)	NCI-H2170	1.13

Entry under review: CN1CCN(CCOc2cc(OC3CCOCC3)c3c(Nc4c(Cl)ccc5c4OCO5)ncnc3c2)CC1 [Saracatinib] + CCNC(=O)c1noc(-c2cc(C(C)C)c(O)cc2O)c1-c1ccc(CN2CCOCC2)cc1 [Luminespib] (partner 0.01 µM) . Reported relative viability?
0.477

Value lookup for relative viability; key = Cc1csc(=NC2CCCCC2)n1/N=C/c1ccc(O)c(O)c1O [MIM1] + Nc1nc2[nH]cc(CCc3ccc(C(=O)N[C@@H](CCC(=O)O)C(=O)O)cc3)c2c(=O)[nH]1 [Pemetrexed] (partner 0.2 µM)
0.252
